Numbers sourced from patent US20240409536A1.

Test system: HiBiT-tagged HTT protein
Experiment: HiBiT protein abundance assay, HTT (K562 HiBiT knock-in cells)
Assay type: cell-based, human
Conditions: 24 hours
Procedure: Compounds described herein were used to screen for effects on quantitative protein abundance using a HiBit assay system (Promega). Quantitative protein abundance was determined by measuring the protein levels of HiBit-tagged protein targets expressed in cell culture via luminescence using the Nano-Glo HiBiT Lytic Detection System, which uses a split complementation assay format to reconstitute NanoBiT enzyme to generate a luminescent signal. […]
pIC50: −log10 of the molar value.
METRIC_NAME: pIC50

Some compounds with known pIC50 results, for comparison:
>>> measured_value("C[C@@H]1CN(c2ccc(C(=O)Nc3cc(F)c4nc(O)cn4c3)c3nccnc23)C[C@H](C)N1")
"< 5.00"
>>> measured_value("Cc1cn2cc(NC(=O)c3ccc(N4C[C@@H](C)N[C@@H](C5CC5)C4)c4nccnc34)cc(F)c2n1")
"6.00 to 7.00"
>>> measured_value("O=C(Nc1cn[nH]c1)c1ccc(N2CCNCC2)c2ccnnc12")
"< 5.00"
>>> measured_value("Cc1cn2cc(NC(=O)c3ccc(N4C[C@@H](C)N[C@@H](C)C4)c4cccnc34)cc(F)c2n1")
"5.00 to 6.00"
>>> measured_value("Cc1cn2cc(NC(=O)c3ccc(N4CCNCC4)c4ccnnc34)nc(C)c2n1 [Compound 164, 2,2,2-trifluoroacetate]")
"5.00 to 6.00"

# lookup: HiBiT-tagged HTT protein pIC50, key = `Cc1cn2cc(NC(=O)c3ccc(N4CCNC(C)(C)C4)c4nccnc34)cc(F)c2n1`
5.00 to 6.00

Quote pIC50 with test system HiBiT-tagged HTT protein for `CCN1CCC(c2ccc(C(=O)Nc3cc(F)c4nc(C)cn4c3)c3nnccc23)CC1`
5.00 to 6.00

Using HiBiT-tagged HTT protein as the test system, report measured pIC50 of `COc1nc(NC(=O)c2ccc(N3C[C@@H](C)N[C@@H](C)C3)c3nccnc23)nc2cn(C)nc12` .
< 5.00

Report value: pIC50, system: HiBiT-tagged HTT protein, compound: `Cc1cn2cc(NC(=O)c3ccc([C@H]4CCNC4)c4nccnc34)cc(F)c2n1`
5.00 to 6.00

Write down the reported pIC50 (system: HiBiT-tagged HTT protein) of `Cc1cnc2c(C(=O)Nc3cc(F)c4nc(C)cn4c3)ccc(N3CCC(N(C)C)CC3)c2n1`
5.00 to 6.00

Recall the reported pIC50 of `COc1cnc2c(C(=O)Nc3cc(F)c4nc(C)cn4c3)ccc(N3CCNCC3)c2n1` when tested on HiBiT-tagged HTT protein.
< 5.00

Find pIC50 for `COc1cnc2c(C(=O)Nc3cc(F)c4nc(C)cn4c3)ccc(N3C[C@@H](C)N[C@@H](C)C3)c2n1` on HiBiT-tagged HTT protein and write it down.
6.00 to 7.00

Provide HiBiT-tagged HTT protein pIC50 reading for `Cc1cn2cc(NC(=O)c3ccc(N4C[C@@H](C)N[C@@H](C)C4)c4ncc(O)nc34)cc(F)c2n1` .
< 5.00

Give pIC50; test system HiBiT-tagged HTT protein; compound `COc1cc2c(N3C[C@@H](C)N[C@@H](C)C3)ccc(C(=O)Nc3cc(F)c4nc(C)cn4c3)c2nn1`
6.00 to 7.00

Look up and report measured pIC50 (HiBiT-tagged HTT protein) for the following compound: Cc1cn2cc(NC(=O)c3ccc(N4C[C@@H](C)N[C@@H](C)C4)c4ccnnc34)cc(F)c2n1 [Compound 161, 2,2,2-trifluoroacetate]
5.00 to 6.00

----------
Tested on: MYB mRNA
Assay: Splicing RT-qPCR assay, MYB canonical (CJ) and alternative (AJ) junction mRNA
Assay type: cell-based
Details: Homo sapiens, decrease in canonical junction mRNA, A673 or K562 cells, 24 hours
pIC50: −log10 of the molar value. Where a name gives a salt, the structure may show the parent alone.
Some compounds, each annotated with its measured pIC50.

Use the examples below as a reference point.
>>> measured_value("Cc1cn2cc(NC(=O)c3ccc(N4C[C@@H](C)NC5(CC5)C4)c4nccnc34)cc(F)c2n1")
"6.00 to 7.00"
>>> measured_value("Cn1cc2c(F)cc(NC(=O)c3ccc(N4CCNCC4)c4ccnnc34)cc2n1")
"< 5.00"
>>> measured_value("CNCC1CCN(c2ccc(C(=O)Nc3cc(F)c4nc(C)cn4c3)c3nccnc23)CC1 [Compound 192, trifluoroacetate]")
"5.00 to 6.00"
>>> measured_value("Cc1cn2cc(NC(=O)c3ccc(N4CCN(C)CC4)c4ccnnc34)cc(F)c2n1")
"6.00 to 7.00"
>>> measured_value("Cc1cn2cc(NC(=O)c3ccc(N4C[C@@H](C)N[C@@H](C)C4)c4ncc(Cl)nc34)cc(F)c2n1")
"5.00 to 6.00"
>>> measured_value("CC[C@@H]1CN(c2ccc(C(=O)Nc3cc(F)c4nc(C)cn4c3)c3nnccc23)CCN1")
"> 7.00"
>>> measured_value("Cc1cn2cc(NC(=O)c3ccc(N4CCN(C)[C@@H](C)C4)c4ccnnc34)cc(F)c2n1")
"6.00 to 7.00"

As a next step, examine the compound that follows.
Item Cc1cn2cc(NC(=O)c3ccc(N4CCC(N(C)C)C4)c4ccnnc34)cc(F)c2n1 (centres unmarked) : provide pIC50
6.00 to 7.00

----------
Tested on: HiBiT-tagged MYB protein
Test: HiBiT protein abundance assay, MYB (K562 HiBiT knock-in cells)
Format: cell-based, human
Settings: 24 hours
Counter-ions that a name gives are not always drawn.
METRIC_NAME: IC50

See these solved cases before continuing.
>>> measured_value("Cc1cn2cc(NC(=O)c3ccc(N4C[C@@H](C)N[C@H](C)C4)c4nccnc34)cc(F)c2n1")
"< 100 nM"
>>> measured_value("Cc1cn2cc(NC(=O)c3ccc(N4CCNCC4)c4ccnnc34)cc(C#N)c2n1 [Compound 167, trifluoroacetic acid salt]")
"100 to 1000 nM"
>>> measured_value("CN[C@@H]1CCN(c2ccc(C(=O)Nc3cc(F)c4nc(C)cn4c3)c3nnccc23)C1")
"< 100 nM"
>>> measured_value("CCNC1CCN(c2ccc(C(=O)Nc3cc(F)c4nc(C)sc4c3)c3nnccc23)CC1")
"100 to 1000 nM"
>>> measured_value("Cc1cn2cc(NC(=O)c3ccc(N4CCN5CCOC[C@H]5C4)c4nccnc34)cc(F)c2n1")
"1000 to 10000 nM"

In the following, a different molecule is considered.
Provide one value: measured IC50 of `COCCOc1ncc2c(N3CCNCC3)ccc(C(=O)Nc3cc(F)c4nc(C)cn4c3)c2n1`
> 10000 nM

----------
Tested on: MYB mRNA
Test: Splicing RT-qPCR assay, MYB canonical (CJ) and alternative (AJ) junction mRNA
Assay type: cell-based
Conditions: Homo sapiens, decrease in canonical junction mRNA, A673 or K562 cells, 24 hours
pIC50: −log10 of the molar value.
METRIC_NAME: pIC50

>>> measured_value("COc1ccc2c(N3C[C@@H](C)N[C@@H](C)C3)ccc(C(=O)Nc3cc(F)c4nc(C)cn4c3)c2n1")
"6.00 to 7.00"

Turning now to a further record.
Return pIC50 for the following molecule: `Cc1cn2cc(NC(=O)c3ccc(N4CCN[C@H](CO)C4)c4nccnc34)cc(F)c2n1`
6.00 to 7.00

----------
The molecules listed here are annotated with their pIC50.
Tested on: MYB mRNA
Test: Splicing RT-qPCR assay, MYB canonical (CJ) and alternative (AJ) junction mRNA
Assay type: cell-based
Details: Homo sapiens, decrease in canonical junction mRNA, A673 or K562 cells, 24 hours
pIC50: −log10 of the molar value.

Consider the worked cases shown below.
>>> measured_value("Cc1cn2cc(NC(=O)c3ccc(N4CCN5CCC[C@H]5C4)c4ccnnc34)cc(F)c2n1")
"6.00 to 7.00"
>>> measured_value("C[C@@H]1CN(c2ccc(C(=O)Nc3cc(F)c4nn(C)cc4c3)c3nccnc23)C[C@@H](C)N1")
"6.00 to 7.00"
>>> measured_value("CNC1[C@@H]2C[C@H]1N(c1ccc(C(=O)Nc3cc(F)c4nc(C)cn4c3)c3nnccc13)C2 (some centres unmarked)")
"5.00 to 6.00"
>>> measured_value("Cc1cn2cc(NC(=O)c3ccc(N4CCNC(C)C4)c4ccnnc34)cc(F)c2n1 (centres unmarked)")
"> 7.00"
>>> measured_value("COc1cn2cc(NC(=O)c3ccc(N4C[C@@H](C)N[C@@H](C)C4)c4nccnc34)cc(F)c2n1")
"< 5.00"

Fill in pIC50 for record `Cc1cn2cc(NC(=O)c3ccc(N4C[C@@H](C)N[C@@H](C5CC5)C4)c4nccnc34)cc(F)c2n1`
> 7.00

State its pIC50 for this molecule: `Cn1cc2ccc(NC(=O)c3ccc(N4CCNCC4)c4ccnnc34)cc2n1`
< 5.00

Recall and state the measured pIC50 for `Cc1cn2cc(NC(=O)c3ccc(N4CCNCC4)c4ccnnc34)c(C)cc2n1` .
5.00 to 6.00
